System: rodent lifetime carcinogenesis bioassay, tumor incidence TD50
Test: carcinogenic potency in animals, long-term in vivo studies, CPDB compilation (AID 1745844)
Conditions: mouse; strain B6C3F1; males; inhaled; site: liver; lesion: hepatocellular carcinoma; dosed 40 weeks; study length 105 weeks
endpoint: TD50

If you can, please state the reported TD50 value of `C=CC(=C)C` .
2330 mg/kg/day

====

Test system: rodent lifetime carcinogenesis bioassay, tumor incidence TD50
Experiment: carcinogenic potency in animals, long-term in vivo studies, CPDB compilation (AID 1745844)
Conditions: hamster; strain Syrian Golden; males; inhaled; site: liver; lesion: angioma; dosed 30 weeks; study length 101 weeks
endpoint: TD50

If you can, please state the reported TD50 value of `C=CCl` .
2380 mg/kg/day

====

System: rodent lifetime carcinogenesis bioassay, tumor incidence TD50
Assay: carcinogenic potency in animals, long-term in vivo studies, CPDB compilation (AID 1745844)
Details: rat; strain Fischer 344; males; by gavage; site: lung; lesion: squamous-cell carcinoma; dosed 30 weeks; study length 65 weeks
Exercise: for every item that follows, state its recorded TD50.

If you can, please state the reported TD50 value of `CN(C)N=O` .
0.372 mg/kg/day

// same read-out, input: `CCCCCCCCCCCN(C)N=O`
2.37 mg/kg/day

====

Test system: rodent lifetime carcinogenesis bioassay, tumor incidence TD50
Test: carcinogenic potency in animals, long-term in vivo studies, CPDB compilation (AID 1745844)
Conditions: mouse; strain B6C3F1; males; by gavage; site: Harderian gland; lesion: adenoma, NOS + acinar-cell adenoma + papillary adenoma; dosed 103 weeks; study length 105 weeks
endpoint: TD50 (mg/kg/day)
Express the result in mg/kg/day but write the number alone.

If you can, please state the reported TD50 value of `ClC=C(Cl)Cl` .
3830

====

Tested on: rodent lifetime carcinogenesis bioassay, tumor incidence TD50
Assay: carcinogenic potency in animals, long-term in vivo studies, CPDB compilation (AID 1745844)
Conditions: mouse; strain CDF1; males; in feed; site: liver; lesion: hepatocellular carcinoma; dosed 84 weeks; study length 84 weeks
Exercise: for every item that follows, state its recorded TD50.
Units required after the number.

If you can, please state the reported TD50 value of `Nc1ccc2nc3ccccn3c2n1` .
255 mg/kg/day

// same read-out, input: `Cc1cnc2ccc3c(nc(N)n3C)c2n1`
102 mg/kg/day

====

Test system: rodent lifetime carcinogenesis bioassay, tumor incidence TD50
Test: carcinogenic potency in animals, long-term in vivo studies, CPDB compilation (AID 1745844)
Settings: mouse; strain B6AKF1; males; oral dosing; site: liver; lesion: hepatoma; dosed 76 weeks; study length 76 weeks
Activity calls are given as the source filed them. How the calls were made is not given here.
endpoint: TD50

If you can, please state the reported TD50 value of `C=C1C[C@]23C[C@@]1(O)CC[C@H]2[C@@]12C=C[C@H](O)[C@@](C)(C(=O)O1)[C@H]2[C@@H]3C(=O)O` .
316 mg/kg/day (inactive)

// same read-out, input: `CC(C)Oc1ccc(Nc2ccccc2)cc1`
1130 mg/kg/day (inactive)

// same read-out, input: `CCN(CC)C(=S)[S-].CCN(CC)C(=S)[S-].[Zn+2]`
205 mg/kg/day (inactive)

// same read-out, input: `CC(=O)[O][Sn]([c]1ccccc1)([c]1ccccc1)[c]1ccccc1`
241 mg/kg/day (inactive)

// same read-out, input: `N#CN`
191 mg/kg/day

// same read-out, input: `O=C1c2ccccc2C(=O)N1SC(Cl)(Cl)Cl`
8230 mg/kg/day (inactive)

// same read-out, input: COC(C(=O)O)c1ccccc1 (stereo unspecified)
3620 mg/kg/day (inactive)

// same read-out, input: `CCN(CC)C(=S)S[Te](SC(=S)N(CC)CC)(SC(=S)N(CC)CC)SC(=S)N(CC)CC`
55.5 mg/kg/day

// same read-out, input: `S=C([S-])NCCNC(=S)[S-].[Zn+2]`
903 mg/kg/day (inactive)

// same read-out, input: `C=C(C)C(=O)Nc1ccc(Cl)c(Cl)c1`
27.1 mg/kg/day (inactive)

// same read-out, input: `[Cu+2].[O-]c1cccc2cccnc12.[O-]c1cccc2cccnc12`
967 mg/kg/day (inactive)

// same read-out, input: `C[N+](C)(C)CCCl`
11.4 mg/kg/day

// same read-out, input: `Cc1cc(OC(=O)N(C)C)n(C(C)C)n1`
0.0419 mg/kg/day (inactive)

// same read-out, input: `O=C1NCCN1`
500 mg/kg/day (inactive)

// same read-out, input: CCCCCCCCS(=O)C(C)Cc1ccc2c(c1)OCO2 (stereo unspecified)
88.2 mg/kg/day

// same read-out, input: `c1ccc(Nc2ccc3ccccc3c2)cc1`
460 mg/kg/day

// same read-out, input: `c1ccc2sc(SN3CCOCC3)nc2c1`
20100 mg/kg/day (inactive)

// same read-out, input: O=C1C2CC=CCC2C(=O)N1SC(Cl)(Cl)Cl (stereo unspecified)
195 mg/kg/day (inactive)

// same read-out, input: `CCN(CC)C(=S)SSC(=S)N(CC)CC`
197 mg/kg/day

// same read-out, input: `Cc1cc(O)cc(C)c1N(C)C`
207 mg/kg/day (inactive)

// same read-out, input: CC=CC(=O)Oc1c(C(C)CCCCCC)cc([N+](=O)[O-])cc1[N+](=O)[O-] (stereo unspecified)
2.07 mg/kg/day (inactive)

====

System: rodent lifetime carcinogenesis bioassay, tumor incidence TD50
Assay: carcinogenic potency in animals, long-term in vivo studies, CPDB compilation (AID 1745844)
Details: rat; strain Fischer 344; males; in feed; site: any site (literature study); lesion: several types; types named in the paper; dosed 104 weeks; study length 104 weeks
Calls of active or inactive are those of the source. How the calls were made is not given here.
endpoint: carcinogen call

{"input.smiles": "Cc1cc(O)c2c(c1)C(=O)c1cc(O)cc(O)c1C2=O", "endpoint.result": "negative (inactive)"}
{"input.smiles": "CC(=O)OC[C@H]1O[C@@](COC(=O)C(C)C)(O[C@H]2O[C@H](COC(C)=O)[C@@H](OC(=O)C(C)C)[C@H](OC(=O)C(C)C)[C@H]2OC(=O)C(C)C)[C@@H](OC(=O)C(C)C)[C@@H]1OC(=O)C(C)C", "endpoint.result": "negative (inactive)"}
{"input.smiles": "Cc1ccc(OP(=O)(Oc2ccc(C)cc2)Oc2ccc(C)cc2)cc1", "endpoint.result": "negative (inactive)"}
{"input.smiles": "CCN(CC)C(=S)S", "endpoint.result": "negative (inactive)"}

====

Tested on: rodent lifetime carcinogenesis bioassay, tumor incidence TD50
Assay: carcinogenic potency in animals, long-term in vivo studies, CPDB compilation (AID 1745844)
Details: mouse; strain B6C3F1; males; inhaled; site: lung; lesion: alveolar/bronchiolar carcinoma + carcinoma; dosed 95 weeks; study length 95 weeks
endpoint: TD50 (mg/kg/day)
Express the result in mg/kg/day but write the number alone.

If you can, please state the reported TD50 value of `FC(F)=C(F)F` .
830

====

Test system: rodent lifetime carcinogenesis bioassay, tumor incidence TD50
Test: carcinogenic potency in animals, long-term in vivo studies, CPDB compilation (AID 1745844)
Conditions: rat; strain Donryu; males; in drinking water; site: forestomach; lesion: one or several types; types not named; dosed 65 weeks; study length 65 weeks
endpoint: TD50 (mg/kg/day)
Express the result in mg/kg/day but write the number alone.

If you can, please state the reported TD50 value of `CCCCCN(N=O)C(N)=O` .
0.532

====

Test system: rodent lifetime carcinogenesis bioassay, tumor incidence TD50
Experiment: carcinogenic potency in animals, long-term in vivo studies, CPDB compilation (AID 1745844)
Details: hamster; strain Syrian Golden; males; in drinking water; site: liver; lesion: histiocytoma, malignant; dosed 104 weeks; study length 104 weeks
endpoint: TD50 (mg/kg/day)
Express the result in mg/kg/day but write the number alone.

If you can, please state the reported TD50 value of `O=S(=O)(O)O` .
2580

====

System: rodent lifetime carcinogenesis bioassay, tumor incidence TD50
Assay: carcinogenic potency in animals, long-term in vivo studies, CPDB compilation (AID 1745844)
Settings: rat; strain Fischer 344; males; in feed; site: thyroid gland; lesion: c-cell adenoma + c-cell carcinoma; dosed 103 weeks; study length 104 weeks
endpoint: TD50 (mg/kg/day)
Express the result in mg/kg/day but write the number alone.

If you can, please state the reported TD50 value of `Nc1ccc(N)c2c1C(=O)c1c(N)ccc(N)c1C2=O` .
474

====

System: rodent lifetime carcinogenesis bioassay, tumor incidence TD50
Test: carcinogenic potency in animals, long-term in vivo studies, CPDB compilation (AID 1745844)
Conditions: rat; strain Fischer 344; males; inhaled; site: any site (literature study); lesion: several types; types named in the paper; dosed 103 weeks; study length 105 weeks
Exercise: for every item that follows, state its recorded TD50.
Express the result in mg/kg/day but write the number alone.

If you can, please state the reported TD50 value of CCC1CO1 (configuration not stated) .
79.6

// same read-out, input: `CNC[C@H](O)c1ccc(O)c(O)c1`
4.7
